Biological target: dGA (SEQ ID NO: 5) (Homo sapiens, UniProt P10636)
Sequence (P10636 614-707): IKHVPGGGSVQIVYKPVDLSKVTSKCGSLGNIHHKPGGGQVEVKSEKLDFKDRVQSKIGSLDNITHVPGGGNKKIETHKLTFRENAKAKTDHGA
Experiment: Biacore X100 SPR kinetics of scAbs for dGA
Format: binding
Details: Table 24; scAb, dGA analyte; dissociation rate
MEASUREMENT_KIND: Kd (s⁻¹)
Answers are plain numbers, in s⁻¹.

S1D12: sheep-derived anti-tau core clone; scFv SEQ ID NO: 32, VH 443, VL 444 (protein, S1D12 amino acid sequence) scFv: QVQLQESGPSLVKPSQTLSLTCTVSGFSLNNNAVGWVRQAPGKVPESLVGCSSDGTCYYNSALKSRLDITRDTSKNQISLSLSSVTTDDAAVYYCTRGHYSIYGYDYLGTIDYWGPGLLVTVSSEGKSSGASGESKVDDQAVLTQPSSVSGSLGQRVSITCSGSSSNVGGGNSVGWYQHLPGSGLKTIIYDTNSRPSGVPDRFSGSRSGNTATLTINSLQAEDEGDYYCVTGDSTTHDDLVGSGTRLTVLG: 0.000418

Field: next molecule
# molecule S1G2: sheep-derived anti-tau core clone; scFv SEQ ID NO: 81, VH 455, VL 456 (protein, S1G2 amino acid sequence) scFv: QVQLQESGPSLVKPSQTLSLTCTVSGFSLTSNSVGWVRQAPGKAPEWVAGIDTDGEEGYNPALNSRLSITRDTSKSQVSLSLSSVTSEDTAVYYCGRSYRADGLAYGYVQAIDYWGPGLLVTVSSEGKSSGASGESKVDDQAVVTQPSSVSGSLGQRVSITCSGSFIGISSVGWFQQLPGSGLRTIIVASDGRPSGVPDRFSMSKSGNTATLTISSLQAEDEADYFCGSSDRTPYTGVFGSGTRLTVLG ; its Kd = 0.0003499
